Molecular target: recombinant human 5-HT6 receptor (Homo sapiens)
Construct: expressed in transfected cells; cell membranes used
Sequence (P50406 whole entry): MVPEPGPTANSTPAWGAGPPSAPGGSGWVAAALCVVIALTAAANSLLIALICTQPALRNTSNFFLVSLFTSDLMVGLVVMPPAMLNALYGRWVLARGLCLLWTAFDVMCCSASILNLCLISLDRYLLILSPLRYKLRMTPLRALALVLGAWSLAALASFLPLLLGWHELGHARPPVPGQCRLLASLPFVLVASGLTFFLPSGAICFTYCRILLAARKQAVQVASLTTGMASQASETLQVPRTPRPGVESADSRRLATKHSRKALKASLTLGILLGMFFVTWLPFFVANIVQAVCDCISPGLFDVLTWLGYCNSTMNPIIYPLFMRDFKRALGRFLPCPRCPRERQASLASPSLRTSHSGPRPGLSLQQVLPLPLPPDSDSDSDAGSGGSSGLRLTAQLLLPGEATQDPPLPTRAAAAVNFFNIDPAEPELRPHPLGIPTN
Test: Radioligand binding: competition for [3H]LSD binding in membranes of HEK293 cells expressing the receptor
Settings: [3H]LSD (5 nM), HEK293 cell membranes, 60 min at 37° C., pH 7.4, duplicate determinations
pKi: −log10 of the molar value.
reported property: pKi

1. CC1(C)Oc2c(N3CCNCC3)cccc2N(Cc2cccc(Cl)c2)C1=O: 9.12
2. O=C1COc2c(N3CCNCC3)cc(F)cc2N1Cc1ccccc1F: 9.17
3. O=C1COc2c(N3CCNCC3)cccc2N1Cc1ccccc1F: 9.04
4. CC1(C)Oc2c(N3CCNCC3)cccc2N(Cc2ccccc2)C1=O: 9.13
5. C[C@@H]1Oc2c(N3CCNCC3)cccc2N(Cc2ccccc2)C1=O: 9.12
